Entries and their melting point

For orientation, consider the following solved cases.
>>> measured_value("CC(C)=CCONC(=O)Nc1ccc(-c2noc(C(F)(F)F)n2)cc1")
"118 to 121 °C"
>>> measured_value("O=C(Nc1ccc(-c2noc(C(F)(F)F)n2)cn1)c1ccccc1")
"172.8 to 174.3 °C"
>>> measured_value("CCC(=O)N(C)c1ccc(-c2noc(C(F)(F)F)n2)cc1")
"78 to 86 °C"
>>> measured_value("COCCN(OC)C(=O)Nc1ccc(-c2noc(C(F)(F)F)n2)cc1")
"89 to 92 °C"
>>> measured_value("CON1CCN(C(=O)Nc2ccc(-c3noc(C(F)(F)F)n3)cc2)CC1")
"164 to 167 °C"
>>> measured_value("O=C(Nc1ccc(-c2noc(C(F)(F)F)n2)cc1)N1CCCCO1")
"117 to 120 °C"

C=C(C)CONC(=O)Nc1ccc(-c2noc(C(F)(F)F)n2)cc1 has a reported melting point of 134 to 137 °C

C=C(C)CON(C)C(=O)Nc1ccc(-c2noc(C(F)(F)F)n2)cc1 has a reported melting point of 65 to 68 °C

O=C(Nc1ccc(-c2noc(C(F)(F)F)n2)cc1)C(F)(F)F has a reported melting point of 146 to 147 °C

CON(CC1CC1)C(=O)Nc1ccc(-c2noc(C(F)(F)F)n2)cc1 has a reported melting point of 117 to 120 °C

CCN(OC)C(=O)Nc1ccc(-c2noc(C(F)(F)F)n2)cc1 has a reported melting point of 113 to 116 °C

CONC(=O)N(C)c1ccc(-c2noc(C(F)(F)F)n2)cc1 has a reported melting point of 73 to 76 °C

COCC(=O)N(c1ccc(-c2noc(C(F)(F)F)n2)cc1)C(C)C(=O)NC(C)(C)C (stereo not drawn) has a reported melting point of 115 to 117 °C

O=C(Nc1ccc(-c2noc(C(F)(F)F)n2)cc1)c1ccccc1C(F)(F)F has a reported melting point of 162 to 163 °C

CON(C)C(=O)Nc1ccc(-c2noc(C(F)(F)F)n2)cn1 has a reported melting point of 83 to 87 °C

CC(C)(C)NC(=O)CN(C(=O)C1CC1)c1ccc(-c2noc(C(F)(F)F)n2)cc1 has a reported melting point of 110 to 112 °C

C=CCONC(=O)Nc1ccc(-c2noc(C(F)(F)F)n2)cc1 has a reported melting point of 124 to 127 °C

CONC(=O)Nc1ccc(-c2noc(C(F)(F)F)n2)cn1 has a reported melting point of 151 to 154 °C

###

System: Puccinia recondita f. Sp. Tritici
Experiment: Puccinia recondita f. sp. tritici / wheat / leaf disc curative (brown rust)
Type: in vivo
Conditions: foliar, 200 ppm in the applied formulation, wheat leaf segments cv. Kanzler, compound applied 1 day after inoculation, vs untreated, 6 to 8 days after application, read-out: disease control
readout kind: pest or weed control at 200 ppm

For orientation, consider the following solved cases.
>>> measured_value("COC(C)C(=O)N(C)c1ccc(-c2noc(C(F)(F)F)n2)cc1 (stereo not drawn)")
"≥ 80%"
>>> measured_value("CCCC(=O)Nc1ccc(-c2noc(C(F)(F)F)n2)cc1")
"≥ 80%"
>>> measured_value("CN(C(=O)C1CCCO1)c1ccc(-c2noc(C(F)(F)F)n2)cc1 (stereo not drawn)")
"≥ 80%"
>>> measured_value("Cc1ccnn1CC(=O)Nc1ccc(-c2noc(C(F)(F)F)n2)cc1")
"≥ 80%"
>>> measured_value("O=C(Nc1ccc(-c2noc(C(F)(F)F)n2)cc1)C1CC1F (stereo not drawn)")
"≥ 80%"
>>> measured_value("CON(C(=O)C1CC1)c1ccc(-c2noc(C(F)(F)F)n2)cc1")
"≥ 80%"
>>> measured_value("CC1(C(=O)Nc2ccc(-c3noc(C(F)(F)F)n3)cc2)COC1")
"≥ 80%"
>>> measured_value("COCCC(=O)N(C)c1ccc(-c2noc(C(F)(F)F)n2)cc1")
"≥ 80%"
>>> measured_value("CN(C(=O)C1(C)COC1)c1ccc(-c2noc(C(F)(F)F)n2)cc1")
"≥ 80%"
>>> measured_value("C=CCONC(=O)Nc1ccc(-c2noc(C(F)(F)F)n2)cc1")
"≥ 80%"

C=C(C)CON(C)C(=O)Nc1ccc(-c2noc(C(F)(F)F)n2)cc1 has a reported pest or weed control at 200 ppm of ≥ 80%

CN(C(=O)C1CCC1)c1ccc(-c2noc(C(F)(F)F)n2)cc1 has a reported pest or weed control at 200 ppm of ≥ 80%

CON1CCN(C(=O)Nc2ccc(-c3noc(C(F)(F)F)n3)cc2)CC1 has a reported pest or weed control at 200 ppm of ≥ 80%

COCCCC(=O)N(C)c1ccc(-c2noc(C(F)(F)F)n2)cc1 has a reported pest or weed control at 200 ppm of ≥ 80%

O=C(Nc1ccc(-c2noc(C(F)(F)F)n2)cc1)C1CCOC1 (stereo not drawn) has a reported pest or weed control at 200 ppm of ≥ 80%

CC(C)OCC(=O)Nc1ccc(-c2noc(C(F)(F)F)n2)cc1 has a reported pest or weed control at 200 ppm of ≥ 80%

C#CCCC(=O)Nc1ccc(-c2noc(C(F)(F)F)n2)cc1 has a reported pest or weed control at 200 ppm of ≥ 80%

CC(=O)N(C)c1ccc(-c2noc(C(F)(F)F)n2)cc1 has a reported pest or weed control at 200 ppm of ≥ 80%
